// data source = the supplement of paper PMC10307832

Entries annotated with measured relative viability
# System: NCI-H1666
# protocol.summary: relative viability (nuclei count vs DMSO), 5 days (fraction); higher = more cells survive
# condition.context: first compound 0.01 µM
value.type: relative viability

{"columns": ["compound", "measured.on", "quantitative.result"],
 "data": [
  ["CCN(CC)CCCCNc1ncc2cc(-c3cc(OC)cc(OC)c3)c(NC(=O)NC(C)(C)C)nc2n1 + O=C(c1cc(Cc2n[nH]c(=O)c3ccccc23)ccc1F)N1CCN(C(=O)C2CC2)CC1 [Olaparib] (partner 8 µM)", "NCI-H1666", 0.812],
  ["CCN(CC)CCCCNc1ncc2cc(-c3cc(OC)cc(OC)c3)c(NC(=O)NC(C)(C)C)nc2n1 + CC1(C)CCC(c2ccc(Cl)cc2)=C(CN2CCN(c3ccc(C(=O)NS(=O)(=O)c4ccc(N[C@H](CCN5CCOCC5)CSc5ccccc5)c(S(=O)(=O)C(F)(F)F)c4)cc3)CC2)C1 [Navitoclax] (partner 0.5 µM)", "NCI-H1666", 1.03],
  ["CCN(CC)CCCCNc1ncc2cc(-c3cc(OC)cc(OC)c3)c(NC(=O)NC(C)(C)C)nc2n1 + COc1cc2c(Oc3ccc(NC(=O)C4(C(=O)Nc5ccc(F)cc5)CC4)cc3F)ccnc2cc1OCCCN1CCOCC1 [Foretinib] (partner 0.25 µM)", "NCI-H1666", 0.936]
]}

###

# Test system: LC-2-ad
# protocol.summary: relative viability (nuclei count vs DMSO), 5 days (fraction); higher = more cells survive
# condition.context: first compound 0.8 µM
Entries annotated with measured relative viability
value.type: relative viability

{"columns": ["compound", "measured.on", "value.type", "quantitative.result"],
 "data": [
  ["COc1nc(C)cnc1NS(=O)(=O)c1cccnc1-c1ccc(-c2nnco2)cc1 [Zibotentan] + CC(C)C[C@H](NC(=O)[C@H](Cc1ccccc1)NC(=O)c1cnccn1)B(O)O [Bortezomib] (partner 0.002 µM)", "LC-2-ad", "relative viability", 0.921],
  ["O=c1cc(-c2cccc3c2Sc2ccccc2S3)oc(N2CCOCC2)c1 + CC(=O)c1c(C)c2cnc(Nc3ccc(N4CCNCC4)cn3)nc2n(C2CCCC2)c1=O [Palbociclib] (partner 0.5 µM)", "LC-2-ad", "relative viability", 0.469],
  ["COc1nc(C)cnc1NS(=O)(=O)c1cccnc1-c1ccc(-c2nnco2)cc1 [Zibotentan] + CC1(C)CCC(c2ccc(Cl)cc2)=C(CN2CCN(c3ccc(C(=O)NS(=O)(=O)c4ccc(N[C@H](CCN5CCOCC5)CSc5ccccc5)c(S(=O)(=O)C(F)(F)F)c4)cc3)CC2)C1 [Navitoclax] (partner 0.5 µM)", "LC-2-ad", "relative viability", 0.533],
  ["O=c1cc(-c2cccc3c2Sc2ccccc2S3)oc(N2CCOCC2)c1 + Cc1cc(Nc2cc(N3CCN(C)CC3)nc(Sc3ccc(NC(=O)C4CC4)cc3)n2)n[nH]1 [Tozasertib] (partner 0.1 µM)", "LC-2-ad", "relative viability", 0.484],
  ["O=c1cc(-c2cccc3c2Sc2ccccc2S3)oc(N2CCOCC2)c1 + Cc1nc(NC(=O)N2CCC[C@H]2C(N)=O)sc1-c1ccnc(C(C)(C)C(F)(F)F)c1 [Alpelisib] (partner 2 µM)", "LC-2-ad", "relative viability", 0.844]
]}
